The measurements presented in this section are drawn from the Human Domainome abundance scans (Beltran et al. 2025).

B1: Calcium-binding protein 2, residues 155 to 219; numbered along this chain, Q9NPB3 (parent)
chain: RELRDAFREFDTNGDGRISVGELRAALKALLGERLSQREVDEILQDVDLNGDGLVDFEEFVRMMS

- Variants of: B1
- protocol_description: abundance fitness (aPCA) (normalised: wild type 0, dead -1); higher = more abundant; growth selection in yeast, the domain comes from the species named
- measurement_context: Homo sapiens
abundance fitness below -0.06 gives not fulfilled; abundance fitness at or above it gives fulfilled.

Say whether S19E shows abundance fitness of -0.06 or more. not fulfilled

Check the entry L31D : does abundance fitness equal or exceed -0.06? not fulfilled

Identify whether the reported abundance fitness of the following variant is -0.06 or greater: L44A fulfilled

Can E9P be said to have abundance fitness at or above -0.06? not fulfilled

State whether the measured abundance fitness reaches -0.06, counting equality as reaching it, for D5Q fulfilled

Could you tell me if the measured abundance fitness of E9Y reaches -0.06 or more? not fulfilled

Form field: abundance fitness at least -0.06? Entry: R4D fulfilled

Given the entry E22V , answer whether its abundance fitness meets or surpasses -0.06. not fulfilled

Given R4A , state whether its abundance fitness is at least -0.06. not fulfilled

Does the reported abundance fitness for F10I fall at or above the -0.06 mark? fulfilled

Reported abundance fitness reaches at least -0.06 for D52P ? not fulfilled

Item R4S with abundance fitness of -0.06 or above? not fulfilled

Hello, I need to know if M64R has measured abundance fitness not below -0.06. Thanks! fulfilled

# check: abundance fitness of Q37E is greater than or equal to -0.06 fulfilled

Determine whether measured abundance fitness meets or exceeds -0.06 for S19G fulfilled

Reported abundance fitness reaches at least -0.06 for G16Y ? not fulfilled

Decide: abundance fitness of I43W >= -0.06? not fulfilled

Is abundance fitness at least -0.06? Consider R1E fulfilled

Has L30N a recorded abundance fitness greater than or equal to -0.06? fulfilled

Reported abundance fitness at or above -0.06? N50D fulfilled

Has R34W a recorded abundance fitness greater than or equal to -0.06? not fulfilled

Can E33L be said to have abundance fitness at or above -0.06? not fulfilled

Confirm if abundance fitness reported for the variant G53V is -0.06 or above. not fulfilled

Determine whether this variant has abundance fitness no lower than -0.06: A29V not fulfilled

Please indicate if the recorded abundance fitness for E9W meets or exceeds -0.06. not fulfilled

API: above_or_equal(metric=abundance fitness, cutoff=-0.06) for item V61D fulfilled

Is abundance fitness at least -0.06? Consider D41L not fulfilled

Form field: abundance fitness at least -0.06? Entry: A6C fulfilled

Please indicate if the recorded abundance fitness for L35A meets or exceeds -0.06. fulfilled

Is abundance fitness at least -0.06? Consider D41K not fulfilled

Reported abundance fitness at or above -0.06? E33K fulfilled

Would you say A29C shows abundance fitness at minimum -0.06? not fulfilled

For this variant, is measured abundance fitness -0.06 or higher? R34C fulfilled
